Experiment: protein stability index of a GFP-peptide fusion (yeast GPS) (PSI 1-4); higher = more stable; sorted into four equal gates, so the index is relative within each strain
Settings: ubr1∆
Entries and their measured protein stability index follow.

{"columns": ["sequence data", "protein stability index"],
 "data": [
  ["AYNKKSTISAREIQTAV [HTB1]", 2.92],
  ["LLGTMAGGAADCQFWET [PRE2]", 2.65],
  ["VVDVALKYPELSIKNSF [NUT1]", 2.77],
  ["EITSVLSNLHESNKRYR [SNF12]", 3.08],
  ["ANVPSTATTGKRKPAKS [RPN4]", 2.8],
  ["TCILHGPVAAQFTKVID [FAS1]", 1.98],
  ["AISKKNKSLKYVIHGIE [LIN1]", 1.84],
  ["VNAPLPTPFKVDDNVDF [RPN2]", 2.96],
  ["LLVIGGNQRKILQYSRT [YJR042W/NUP85]", 1.4]
]}
